The origin of these recorded values is PubChem BioAssay (NCATS).

system: PC26; test: qHTS profiling for inhibitors of Plasmodium falciparum proliferation (AID 504749); note: nearly all actives have a fitted effect of over 60% in size; conditions: P. falciparum in erythrocytes, SYBR Green DNA, 72 h; series mostly up to 28.7 µM
Records with an inconclusive call do not appear. Active and inactive are the calls of the source. Calls come from the whole dose curve; as a rule, active = well fitted inhibition curve with a large enough effect; inconclusive = small, poorly fitted or top-dose-only effect; inactive = flat fitted curve, though single readings scatter.
The reply should be one of these categories: TRUE = active, FALSE = inactive

Inquiry: I would be grateful if you could indicate the recorded call for `CO/N=C(/C(=O)N[C@@H]1C(=O)N2C(C(=O)O)=C(CSc3nc(C)c(CC(=O)O)s3)CS[C@H]12)c1csc(N)n1` .
Reply text: FALSE

Inquiry: I would be grateful if you could indicate the recorded call for C=NC(C(=O)NC1C(=O)N2C1SC(C)(C)C2C(=O)O)c1ccccc1 (stereo not given) .
Reply text: FALSE

Inquiry: I would be grateful if you could indicate the recorded call for CCCCC(=O)OC1CCC2C3CCc4cc(O)ccc4C3CC[C@]12C (stereo not given in full) .
Reply text: FALSE

Inquiry: I would be grateful if you could indicate the recorded call for COc1cccc2c1C(=O)c1c(O)c3c(c(O)c1C2=O)C[C@@](O)(C(=O)CO)C[C@@H]3OC1CC(N)C(O)C(C)O1 (stereo not given in full) .
Reply text: TRUE

Inquiry: I would be grateful if you could indicate the recorded call for C=CCn1c(=O)n(C2OC(CO)C(O)C2O)c2nc(N)[nH]c(=O)c21 (stereo not given) .
Reply text: FALSE

Inquiry: I would be grateful if you could indicate the recorded call for `O=[N+]([O-])O[C@H]1CO[C@H]2[C@@H]1OC[C@H]2O` .
Reply text: FALSE

Inquiry: I would be grateful if you could indicate the recorded call for `C/C(=C(/CCOC(=O)C(C)C)SS/C(CCOC(=O)C(C)C)=C(\C)N(C=O)Cc1cnc(C)nc1N)N(C=O)Cc1cnc(C)nc1N` .
Reply text: FALSE

Inquiry: I would be grateful if you could indicate the recorded call for OCC(O)C(O)C(O)C(O)CO (stereo not given) .
Reply text: FALSE

Inquiry: I would be grateful if you could indicate the recorded call for `C[C@@H](O)[C@@H]1C(=O)N2C(C(=O)O)=C([C@H]3CCCO3)S[C@H]12` .
Reply text: FALSE

Inquiry: I would be grateful if you could indicate the recorded call for `C=C1C(=O)O[C@@H]2[C@@H]1CC/C(C)=C\CC[C@@]1(C)O[C@H]21` .
Reply text: FALSE

====

molecular target: Glucocorticoid receptor (Homo sapiens); assay: GR-GFP Redistribution (AID 450); conditions: U2OS GR-GFP nuclear translocation, laser cytometry, 2 h; series mostly up to 20.6 µM; note: potency is the fitted concentration of half-maximal effect
Activity calls are given as the source filed them.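 How the source made its calls: active means compounds whose dose series gives a full or clear partial fitted curve of increased nuclear translocation; inconclusive means weak partial curve or effect only at the top dose; inactive means no dose-dependent translocation response.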
For each entry below, report its Potency value.

Inquiry: Query: Potency; subject: COc1ccc(C(CC(=O)N2CCOCC2)C(C)C)cc1 (configuration not stated)
Reply text: > 20.6 µM (inactive)

Inquiry: Query: Potency; subject: `N#C/C(=C\c1c(N2CCC(C(N)=O)CC2)nc2ccccn2c1=O)S(=O)(=O)c1ccccc1`
Reply text: > 20.6 µM (inactive)

Inquiry: Query: Potency; subject: `Cc1ccc2[nH]c(CCN(C)C)c(CC#N)c2c1`
Reply text: > 20.6 µM (inactive)

Inquiry: Query: Potency; subject: COc1cccc(C2C(C(=O)c3cc4ccccc4o3)=C(O)C(=O)N2CCN(C)C)c1OC (configuration not stated)
Reply text: > 20.6 µM (inactive)

Inquiry: Query: Potency; subject: COC(=O)c1ccc(C2/C(=C(/O)c3ccc(OC)cc3)C(=O)C(=O)N2c2cc(C)on2)cc1 (configuration not stated)
Reply text: > 20.6 µM (inactive)

Inquiry: Query: Potency; subject: `CCCSc1nc(N2CCCC2)c2c(c1C#N)CC(C)(C)OC2`
Reply text: > 20.6 µM (inactive)

Inquiry: Query: Potency; subject: `C[C@@](Cc1ccccc1)(NC(=O)CN)c1ccccc1`
Reply text: > 46 µM (inactive)

Inquiry: Query: Potency; subject: `Cc1cc(NC(=O)CSc2nc(-c3cccnc3)ccc2C#N)no1`
Reply text: > 20.6 µM (inactive)

Inquiry: Query: Potency; subject: `Cn1c(=O)c2c(nc(NCCCO)n2Cc2cccc(C(F)(F)F)c2)n(C)c1=O`
Reply text: > 20.6 µM (inactive)

Inquiry: Query: Potency; subject: `N#Cc1c(N2CCOCC2)nc(N2CCCCC2)c2c1CCN(C1CCCCC1)C2`
Reply text: > 20.6 µM (inactive)

Inquiry: Query: Potency; subject: CC(=O)Oc1ccccc1C1OCCN1C(C)=O (configuration not stated)
Reply text: > 20.6 µM (inactive)

Inquiry: Query: Potency; subject: `Cn1c(=O)c2c(nc(Br)n2CCSc2ncccn2)n(C)c1=O`
Reply text: > 20.6 µM (inactive)

Inquiry: Query: Potency; subject: `COc1ccc(NCc2cc3ccccc3[nH]c2=O)cc1`
Reply text: > 20.6 µM (inactive)

Inquiry: Query: Potency; subject: `COc1cc(C2Nc3cccc4cccc(c34)N2)cc(OC)c1OC(C)=O`
Reply text: > 20.6 µM (inactive)

Inquiry: Query: Potency; subject: `CCSc1nnc(NC(NC(=O)c2ccco2)(C(F)(F)F)C(F)(F)F)s1`
Reply text: > 20.6 µM (inactive)

Inquiry: Query: Potency; subject: `CCCCCc1ccc(-c2ccc(=O)[nH]n2)cc1`
Reply text: > 20.6 µM (inactive)

Inquiry: Query: Potency; subject: `C[C@]12CC[C@@H]3c4ccc(O[C@@H]5O[C@H](C(=O)O)[C@@H](O)[C@H](O)[C@H]5O)cc4CC[C@H]3[C@@H]1C[C@@H](O)[C@@H]2O`
Reply text: > 20.6 µM (inactive)

Inquiry: Query: Potency; subject: `Nc1nonc1C(=O)NCCN=Cc1cc(Cc2ccccc2)cc(Br)c1O`
Reply text: > 20.6 µM (inactive)

Inquiry: Query: Potency; subject: Cc1nc2c(c(=O)n1CC1CCCO1)c1nc3ccccc3nc1n2CCC(C)C (configuration not stated)
Reply text: > 20.6 µM (inactive)

Inquiry: Query: Potency; subject: `Cc1cc(-c2cc(-c3ccc(Cl)cc3)nc(N)c2C#N)co1`
Reply text: > 20.6 µM (inactive)

Inquiry: Query: Potency; subject: `CCc1cc(=O)oc2c(CN3CCCC3)c(O)c(Cl)cc12`
Reply text: > 20.6 µM (inactive)

Inquiry: Query: Potency; subject: COC(=O)c1ccc(C2/C(=C(\O)c3ccc4c(c3)OCCO4)C(=O)C(=O)N2CCCN(C)C)cc1 (configuration not stated)
Reply text: > 20.6 µM (inactive)

Inquiry: Query: Potency; subject: `CCCn1c(SCC#N)nc2c(c1=O)C1(CCCC1)Cc1ccccc1-2`
Reply text: > 20.6 µM (inactive)

Inquiry: Query: Potency; subject: `NC(=S)c1ccc[n+]([C@@H]2O[C@@H](COP(=O)([O-])OP(=O)(O)OC[C@@H]3O[C@@H](n4cnc5c(N)ncnc54)[C@@H](OP(=O)(O)O)[C@H]3O)[C@@H](O)[C@H]2O)c1`
Reply text: > 46 µM (inactive)

Inquiry: Query: Potency; subject: `CC1(C)Nc2ccc(O)cc2-c2c1ssc2=S`
Reply text: > 20.6 µM (inactive)

Inquiry: Query: Potency; subject: `O=C(NCc1ccccn1)c1coc(=O)c(Br)c1`
Reply text: > 20.6 µM (inactive)

Inquiry: Query: Potency; subject: `CCCCC#Cc1nc(N)c2ncn([C@@H]3O[C@@H](C(=O)NCC)[C@H](O)[C@@H]3O)c2n1`
Reply text: > 46 µM (inactive)

Inquiry: Query: Potency; subject: CC(NC(=O)OCc1ccccc1)C(=O)OCN1C(=O)c2ccccc2C1=O (configuration not stated)
Reply text: > 20.6 µM (inactive)

Inquiry: Query: Potency; subject: `CCCCCCCCCCCCCCCCCC(=O)O[C@H](CC(=O)O)C[N+](C)(C)C`
Reply text: > 46 µM (inactive)

Inquiry: Query: Potency; subject: `CCCCCOc1ccc(Cl)cc1CN1CCOCC1`
Reply text: > 20.6 µM (inactive)

Inquiry: Query: Potency; subject: `O=C(NCC(F)(F)F)Nc1nnc(C(F)(F)F)s1`
Reply text: > 20.6 µM (inactive)

Inquiry: Query: Potency; subject: COc1ccc(C2CC(c3ccc(C)cc3)Nc3nc(N)nn32)cc1 (configuration not stated)
Reply text: > 20.6 µM (inactive)

Inquiry: Query: Potency; subject: `CCCCCOC(=O)Cc1c(C)nc(-c2ccccc2)[nH]c1=O`
Reply text: > 20.6 µM (inactive)

Inquiry: Query: Potency; subject: `Cc1cccc(-c2nc(C#N)c(NC3CCCCC3)o2)c1`
Reply text: > 20.6 µM (inactive)

Inquiry: Query: Potency; subject: COc1cccc(/C(O)=C2/C(=O)C(=O)N(CCCN(C)C)C2c2cccc(Cl)c2)c1 (configuration not stated)
Reply text: > 20.6 µM (inactive)

Inquiry: Query: Potency; subject: Cc1cccc(N2C(=O)CC(N3CCN(Cc4ccc(Cl)cc4)CC3)C2=O)c1 (configuration not stated)
Reply text: > 20.6 µM (inactive)

Inquiry: Query: Potency; subject: `CCOC(=O)c1c(CN2CCN(CCO)CC2)n(C)c2cc(Br)c(OC)cc12`
Reply text: > 20.6 µM (inactive)

Inquiry: Query: Potency; subject: `CSc1nc2sc3c(c2c2nncn12)CCC3`
Reply text: > 20.6 µM (inactive)

Inquiry: Query: Potency; subject: `CCO/C(C)=N/n1c2nc3ccccc3nc2c2c(=O)n(CC(C)C)c(C)nc21`
Reply text: > 20.6 µM (inactive)

Inquiry: Query: Potency; subject: `Cc1csc(SCCn2c(Br)nc3c2c(=O)[nH]c(=O)n3C)n1`
Reply text: > 20.6 µM (inactive)

Inquiry: Query: Potency; subject: `CC(=O)O[C@H]1CC[C@@]2(C)[C@@H](CC[C@@]3(C)[C@H]2C(=O)C=C2[C@H]4C[C@](C)(C(=O)OCCN5CCCCC5)CC[C@]4(C)CC[C@@]23C)C1(C)C`
Reply text: > 46 µM (inactive)

Inquiry: Query: Potency; subject: CCOC(=O)CSC1=C(C#N)C(=O)NC(c2ccc(OC)c(OC)c2)S1 (configuration not stated)
Reply text: > 20.6 µM (inactive)
